Assay: Clearance in Non-naive cynomolgus monkey at 5 mg/kg, iv
Type: ADME, organism-based, Macaca fascicularis
Design: dose 5 mg/kg, route intravenous
Conditions: in vivo
endpoint.name: clearance (mL/min/kg)
The response must be a number in mL/min/kg with no trailing unit.

Item: "CC[C@]1(CO)O[C@@H](n2ccc(N)nc2=O)[C@H](F)[C@@H]1O" | clearance: 19.2

The recorded clearance for entry "Nc1ccn([C@@H]2O[C@@](CO)(CF)[C@@H](O)[C@H]2F)c(=O)n1" equals 54.3

The compound listed as "Nc1ccn([C@@H]2O[C@@](CO)(CCl)[C@@H](O)[C@H]2F)c(=O)n1" shows clearance equal to 28

Source: ChEMBL document CHEMBL3414561
